system: A549 NSCLC; assay: NCI tumour cell line growth inhibition, 48 h

Compound | Reading qualifier | TGI / µM
C[N+](C)(N)c1nc(N)c(C#N)c(C#N)c1C#N | > | 10
OC(COc1cccc2ccccc12)CN1CCN(c2ccccc2Cl)CC1 (stereo not given) | = | 35.4
C=CCCC(=O)N1C=CC(=O)[C@H](O)[C@@H]1/C=C/c1ccccc1 | > | 32.5
Cc1cc(S(=O)(=O)Nc2nc3cc(Cl)ccc3o2)c(SCc2ccccc2)cc1Cl | = | 59.9
C=CCC(CNC(=O)OCc1ccccc1)OC(=O)OCc1ccccc1 (stereo not given) | > | 100
O=C1c2ccn(CCCCN3CCC(O)CC3)c2C(=O)c2c1c(O)c1ccccc1c2O | = | 68.9
CN(C)CCNc1nc2c(no[n+]2[O-])c2ccccc12 | = | 33.5
c1ccc(CCn2cncn2)cc1 | > | 100
Cn1ncc(-c2ccc3c(=O)[nH]nc(CN)c3c2)c1-c1c(F)cc2ccccc2c1C#N | = | 18.3
O=C(NCCCCOCC#Cc1ccccc1C#CCS(=O)(=O)c1ccccc1)c1cc2ccccc2[nH]1 | > | 50

---

test system: CAKI-1 renal; assay: NCI tumour cell line growth inhibition, 48 h

Smiles representation | TGI
CSC1=C(C(=O)Nc2ccccc2)C(N)=NC1=O | > 100 µM
CN(C)CCNc1nc2ccccc2c2c(=O)c3ccccc3sc12 | 14.5 µM
Cc1cc(O)cc2c1c(=O)c1ccccc1n2C | > 100 µM

---

test system: NCI-H226 lung; experiment: NCI tumour cell line growth inhibition, 48 h
Readout kind: TGI

Molecule | System | Readout kind | Experimental value
COc1ccc2c(c1)-c1[nH]c3ccccc3c1CC2 | NCI-H226 lung | TGI | 26.2 µM
Cc1cc(O)cc2c1c(=O)c1ccccc1n2C | NCI-H226 lung | TGI | > 100 µM
O=C(NCCCCOCC#Cc1ccccc1C#CCS(=O)(=O)c1ccccc1)c1cc2ccccc2[nH]1 | NCI-H226 lung | TGI | 25 µM
C#CCN(Cc1nc2cc(C(F)(F)F)ccc2nc1-c1ccccc1)c1ccc(F)c(F)c1 | NCI-H226 lung | TGI | > 100 µM
COP(C)(=O)C(Cc1c[nH]c2ccccc12)NC(=O)OCc1ccccc1 (stereo unspecified) | NCI-H226 lung | TGI | > 100 µM
O=C1C[C@H](c2ccc(O)c(O)c2)Oc2cc(O)cc(O)c21 | NCI-H226 lung | TGI | > 100 µM
COCCNC1CCC2(SCCS2)c2[nH]c3ccccc3c21 (stereo unspecified) | NCI-H226 lung | TGI | > 100 µM
C#CCOC(=O)C(N)CCSC (stereo unspecified) | NCI-H226 lung | TGI | > 100 µM
COc1ccc(/C=N/Nc2nc(C)c3c(n2)Nc2ccccc2NC3=O)cc1 | NCI-H226 lung | TGI | > 100 µM
N=C(N)c1ccc(-c2ccc(-c3ccc(F)cc3)s2)s1 | NCI-H226 lung | TGI | 54.2 µM
Nc1c(-c2nc3ccccc3[nH]2)sc(=S)n1-c1ccc(Cl)cc1 | NCI-H226 lung | TGI | 52.2 µM
Nc1ccc(-c2nc3ccccc3s2)cc1Br | NCI-H226 lung | TGI | > 100 µM
O=[N+]([O-])c1cc(Cl)ccc1S(=O)(=O)N1CCCc2cc(Cl)ccc21 | NCI-H226 lung | TGI | > 100 µM
O=[N+]([O-])c1cc(F)c2cccnc2c1O | NCI-H226 lung | TGI | > 100 µM
COc1ccccc1NS(=O)(=O)c1ccc2ncn(NS(=O)(=O)c3ccc(Cl)cc3)c(=O)c2c1 | NCI-H226 lung | TGI | > 100 µM
Cc1ccc(NC(=O)CCC(=O)C(C#N)c2ccccc2)cc1C (stereo unspecified) | NCI-H226 lung | TGI | > 100 µM
CN1C(=O)N(C)C2(CCN(CCCCCCF)CC2)C1=O | NCI-H226 lung | TGI | > 100 µM
CC1=CC(=O)/C(=C/n2c(=S)[nH]c3ccccc32)C(=O)O1 | NCI-H226 lung | TGI | > 100 µM
O=C1c2ccn(CCCCN3CCC(O)CC3)c2C(=O)c2c1c(O)c1ccccc1c2O | NCI-H226 lung | TGI | 60.2 µM
Nc1c(C(=O)Nc2cccc(Br)c2)sc2nc3c(cc12)C(O)CCC3 (stereo unspecified) | NCI-H226 lung | TGI | 54.4 µM
COc1ccc(C(=O)O/N=C2/CCC/C2=C\c2ccccc2)cc1 | NCI-H226 lung | TGI | > 100 µM
C[N+](C)([O-])CCCNc1ccnc2cccc([N+](=O)[O-])c12 | NCI-H226 lung | TGI | > 100 µM
Cn1ncc(-c2ccc3c(=O)[nH]nc(CN)c3c2)c1-c1c(F)cc2ccccc2c1C#N | NCI-H226 lung | TGI | 24.3 µM
CC1(C)C2CCC(N)(C2)C1O (stereo unspecified) | NCI-H226 lung | TGI | > 100 µM
O=S(=O)(O)ONC1=NCCN1 | NCI-H226 lung | TGI | > 100 µM
CCOC(=O)CC[C@H](N)C(=O)N[C@H](Cc1ccc(N(CCCl)CCCl)cc1)C(=O)OCC | NCI-H226 lung | TGI | > 47.7 µM

---

test system: 786-0 renal; experiment: NCI tumour cell line growth inhibition, 48 h

Compound | TGI
CC(=O)OCC1OC(N2C(S)=C(C#N)C(c3ccco3)C(C(C)=O)=C2c2ccccc2)C(OC(C)=O)C(OC(C)=O)C1OC(C)=O (stereo not given) | > 100 µM
C1CC[N-]CC1.CC(=N\O)/C(C)=N/O.CC(=N\O)/C(C)=N/O.[CH2-]CCN1CCOCC1.[Co+2] | > 100 µM
O=C1NC2(C=Cc3c(ccc4ccccc34)O2)Oc2ccccc21 (stereo not given) | > 100 µM
CC1CC[C@@]2(OC1)OC1C[C@H]3[C@@H]4CCC5CC(O)CC[C@]5(C)[C@H]4C/C(=N\N(C)C)[C@]3(C)C1[C@@H]2C (stereo not given in full) | 49.8 µM
COc1cc([C@@H]2c3cc4c(cc3C[C@H]3COC(=O)[C@@H]32)OCO4)cc2c1OCO2 | > 59.8 µM

---

system: SF-268 CNS; assay: NCI tumour cell line growth inhibition, 48 h

Compound | TGI
COC(=O)[C@]12CC[C@@H](C)[C@H](C)[C@@H]1C1=CC[C@@H]3[C@@]4(C)CC(=O)[C@H](OC(=O)c5ccco5)[C@@]5(C)COC(=C45)C[C@@]3(C)[C@]1(C)CC2 | > 100 µM
CC(=O)n1ccc2c(Cl)ncnc21 | > 100 µM
Oc1ccc(Cl)cc1-c1cc(-c2ccc(F)cc2)n[nH]1 | 11.4 µM
O=c1c2c3c(sc2n2c(-c4ccc(Br)cc4)nnc2n1Cc1ccccc1)CCCC3 | 21.1 µM
O=C(CCl)Nc1cc(O)c2c(c1)C(=O)c1cccc(O)c1C2=O | 3.9 µM
COc1c(N2CCN(Cn3c(O)c(N=NC(=O)c4ccncc4)c4cc(F)ccc43)C(C)C2)c(F)cc2c(=O)c(C(=O)O)cn(C3CC3)c12 (centres undefined) | 38.2 µM
Cc1nnc(-c2ccc(-c3nc4ccccc4o3)cc2)o1 | 92.2 µM
CC(=O)O[C@H]1CC[C@H]2[C@@H]3CCC(C(C)=O)[C@H](C(=O)O)[C@H]3CC[C@]12C (some centres undefined) | > 100 µM
COc1ccc(C(=O)O/N=C2/CCC/C2=C\c2ccccc2)cc1 | > 100 µM
C/C=C1\CC(C(=O)OCC)CCCCCCCCCCC1=O (centres undefined) | > 100 µM
NS(=O)(=O)c1ccc(NC(=O)COC(=O)c2cccc3c(=O)c4ccccc4[nH]c23)cc1 | 36.9 µM
COc1cc([C@@H]2c3cc4c(cc3C[C@H]3COC(=O)[C@@H]32)OCO4)cc2c1OCO2 | > 100 µM
CN(C)CC1CCCC/C1=N/OC(=O)c1ccc(Cl)c(Cl)c1 (centres undefined) | > 100 µM
C[N+](C)(N)c1nc(N)c(C#N)c(C#N)c1C#N | > 10 µM
COc1ccccc1NS(=O)(=O)c1ccc2ncn(NS(=O)(=O)c3ccc(Cl)cc3)c(=O)c2c1 | > 100 µM
CCCn1c(N)c(C(=O)CNc2ccc(I)cc2)c(=O)[nH]c1=O | > 100 µM
C=CC1(c2ccc(OC)cc2)OCCCO1 | > 100 µM
O=C(O)CC(O)(C(=O)O)C(O)C(=O)O (centres undefined) | > 1000 µM
O=C(Nc1cc(-c2cccnc2)nc(NCCCN2CCOCC2)n1)c1cc(Br)cc(C(F)(F)F)c1 | 10.4 µM
Nc1ccc(C(=O)N/C(=C\c2cccc([N+](=O)[O-])c2)c2nc3c4c(ccc3[nH]2)C(=O)c2ccccc2C4=O)cc1 | > 100 µM
CCOP(=O)(OCC)C(C)(C)OC(=O)NC#N | > 100 µM
Cn1ccnc1C[N-]Cc1nccn1C.O=[N+]([O-])[O-].O=[N+]([O-])[O-].[Cu+2] | > 100 µM
OC(c1ccccc1)(c1cccnc1)C(O)(c1ccccc1)c1cccnc1 (centres undefined) | > 100 µM
CC(C)(C)OC(=O)N1N=NC2C3OC(CC3=O)C21 (centres undefined) | > 100 µM
COc1ccc(NC(=O)/C=C(C)/C=C/C=C(C)\C=C\C2=C(C)CCCC2(C)C)cc1 | > 100 µM
C[N+](C)([O-])CCCNc1ccnc2cccc([N+](=O)[O-])c12 | 97.5 µM
COc1ccc2c(c1)-c1[nH]c3ccccc3c1CC2 | 28.4 µM
N=C(N)SCCc1ccccn1 | > 100 µM
Brc1cccc[n+]1-c1ccc2cc(-[n+]3ccccc3Br)ccc2c1 | 90.4 µM

The origin of these recorded values is PubChem BioAssay (NCI).
